Ok so here's the combined literature set: Ki for 5-hydroxytryptamine receptor 4 (Rattus norvegicus).
quantityName: Ki (nM)

- smilesRecord: "CC1(C)C(=O)N(C(=O)NCC2CCN(CC3(O)CCOCC3)CC2)c2cc(F)ccc21"
  quantityName: "Ki"
  measurementUnit: "nM"
  valueObserved: 3.9

P: Cn1ccc2cc3c(cc21)CCN3C(=O)Nc1cccnc1
Q: Nc1cc2c(cc1Cl)C(=O)NC1CCN(CCOCCO2)CC1
R: COc1cc(COc2cc(N)c(Cl)cc2C(=O)CCC2CCN(CCNS(C)(=O)=O)CC2)cc(OC)c1
S: CCCCN1CCC(CNC(=S)c2cccc3[nH]cnc23)CC1
T: CCCCN1CCC(CNC(=S)c2cc(Cl)cc3[nH]cnc23)CC1
Query: Sort by Ki, descending. Ranked list of labels, please, in the requested order.
Result: P, Q, R, S, T
(P: 5010 nM, Q: 29.7 nM, R: 3.9 nM, S: 0.15 nM, T: 0.081 nM)
